Tested on: 786-O
protocol_summary: minimum viability across doses, drug + dasatinib, relative to DMSO (fraction); higher = less growth inhibition
particulars: treatment: drug + dasatinib (fixed dose, not stated); 5 days
Give measured minimum viability across doses for each item. Keep answers brief.
Give the figure only, with no unit attached.

Consider the compound CC1(C)CCC(c2ccc(Cl)cc2)=C(CN2CCN(c3ccc(C(=O)NS(=O)(=O)c4ccc(N[C@H](CCN5CCOCC5)CSc5ccccc5)c(S(=O)(=O)C(F)(F)F)c4)cc3)CC2)C1 [ABT-263 (Navitoclax)] + Cc1nc(Nc2ncc(C(=O)Nc3c(C)cccc3Cl)s2)cc(N2CCN(CCO)CC2)n1 . State its measured minimum viability across doses.
0.00344

Give me measured minimum viability across doses, please, for this compound: N#CC[C@H](C1CCCC1)n1cc(-c2ncnc3[nH]ccc23)cn1 + Cc1nc(Nc2ncc(C(=O)Nc3c(C)cccc3Cl)s2)cc(N2CCN(CCO)CC2)n1
0.536

Specify measured minimum viability across doses for CC(=O)NCC(=O)N1[C@H]2CC[C@H]1c1cc(Nc3ncc(C(F)(F)F)c(NC4CCC4)n3)ccc12 + Cc1nc(Nc2ncc(C(=O)Nc3c(C)cccc3Cl)s2)cc(N2CCN(CCO)CC2)n1 .
0.0101

Retrieve minimum viability across doses measured for CCc1cnn2c(NCc3ccc[n+]([O-])c3)cc(N3CCCC[C@H]3CCO)nc12 + Cc1nc(Nc2ncc(C(=O)Nc3c(C)cccc3Cl)s2)cc(N2CCN(CCO)CC2)n1 and print it.
0.00583
